Test system: Staphylococcus aureus
Assay: Antibacterial activity against methicillin-resistant Staphylococcus aureus SA86 by CLSI M07-A8 protocol based microdilution method
Type: functional
Measure: MIC (µg/mL)
Answers are plain numbers, in µg/mL.

For this compound ( CC(C)CCC[C@@H]1CC(=O)N[C@@H](CCCCN)C(=O)N[C@H](CC(N)=O)C(=O)N[C@@H](CO)C(=O)NCC(=O)N(C)[C@H](Cc2ccccc2)C(=O)N[C@@H](CC(C)C)C(=O)N[C@H](CCCN)C(=O)N[C@@H](CCC(=O)O)C(=O)N[C@H](CC(N)=O)C(=O)N[C@H](Cc2c[nH]c3ccccc23)C(=O)N[C@H](CCCN)C(=O)N(C)[C@@H](C(C)C)C(=O)O1 ), measured MIC is 2

----------
Test system: Staphylococcus aureus
Assay: Antibacterial activity against methicillin-resistant Staphylococcus aureus SA86 by CLSI M07-A8 protocol based microdilution method
Format: functional
Measure: MIC (µg/mL)
Give bare numbers, in µg/mL.

[[record]]
test_smiles = "CC(C)CCC[C@@H]1CC(=O)N[C@@H](CO)C(=O)N[C@H](CC(N)=O)C(=O)N[C@@H](CO)C(=O)NCC(=O)N(C)[C@H](Cc2ccccc2)C(=O)N[C@@H](CC(C)C)C(=O)N[C@H](CCCN)C(=O)N[C@@H](CCC(=O)O)C(=O)N[C@H](CC(N)=O)C(=O)N[C@H](Cc2c[nH]c3ccccc23)C(=O)N[C@H](CCCCN)C(=O)N(C)[C@@H](C(C)C)C(=O)O1"
value_observed = 2

[[record]]
test_smiles = "CC(C)CCC[C@@H]1CC(=O)N[C@@H](CO)C(=O)N[C@H](CC(N)=O)C(=O)N[C@@H](CO)C(=O)NCC(=O)N(C)[C@H](Cc2ccccc2)C(=O)N[C@@H](CC(C)C)C(=O)N[C@H](CCCN)C(=O)N[C@@H](CCC(=O)O)C(=O)N[C@H](C)C(=O)N[C@H](Cc2c[nH]c3ccccc23)C(=O)N[C@H](CCCN)C(=O)N(C)[C@@H](C(C)C)C(=O)O1"
value_observed = 1


I'm hoping you can list MIC for every molecule here, please.
1. CC(C)CCC[C@@H]1CC(=O)N[C@@H](CO)C(=O)N[C@H](CC(N)=O)C(=O)N[C@@H](CO)C(=O)NCC(=O)N(C)[C@H](Cc2ccccc2)C(=O)N[C@@H](CC(C)C)C(=O)N[C@H](CCCNC(=N)N)C(=O)N[C@@H](CCC(=O)O)C(=O)N[C@H](CC(N)=O)C(=O)N[C@H](Cc2c[nH]c3ccccc23)C(=O)N[C@H](CCCN)C(=O)N(C)[C@@H](C(C)C)C(=O)O1
2. CC(C)CCC[C@@H]1CC(=O)N[C@@H](CO)C(=O)N[C@H](C)C(=O)N[C@@H](CO)C(=O)NCC(=O)N(C)[C@H](Cc2ccccc2)C(=O)N[C@@H](CC(C)C)C(=O)N[C@H](CCCN)C(=O)N[C@@H](CCC(=O)O)C(=O)N[C@H](CC(N)=O)C(=O)N[C@H](Cc2c[nH]c3ccccc23)C(=O)N[C@H](CCCN)C(=O)N(C)[C@@H](C(C)C)C(=O)O1
3. CC(C)CCC[C@@H]1CC(=O)N[C@@H](CO)C(=O)N[C@H](CC(N)=O)C(=O)N[C@@H](CO)C(=O)NCC(=O)N(C)[C@H](Cc2ccccc2)C(=O)N[C@@H](CC(C)C)C(=O)N[C@H](CCCN)C(=O)N[C@@H](C)C(=O)N[C@H](CC(N)=O)C(=O)N[C@H](Cc2c[nH]c3ccccc23)C(=O)N[C@H](CCCN)C(=O)N(C)[C@@H](C(C)C)C(=O)O1

Response given:
1: 2; 2: 2; 3: 0.5
